The reported measurements were obtained from patent US20050209319A1.

Experiment: Parallel artificial membrane permeability assay (PAMPA)
Type: in vitro ADME
Conditions: PAMPA; donor chamber pH 6.5; 50 μM; two hours at room temperature; acceptor pH 7.4; read-out: Permeability coefficient (Pam) pH 6.5
Description: Artificial membranes were prepared by adding 4 μL of 2% (w/v) dioleoylphosphatidyl-choline in dodecane onto the hydrophobic filters ([…] polyvinylidene fluoride) on the base of the wells of a 96-well donor plate (Millipore, Bedford, Mass.). […] The permeability coefficient through the artificial membrane (“Pam”) was calculated using standard methods (Sugano et al., Int. J. Pharm., 2001, 228, pp. 181-188). […]
Readout Label: Papp at 2 h, 50 µM (×10⁻⁶ cm/s)
Give a bare numeral; the unit ×10⁻⁶ cm/s is implied.

The compound listed as NCC1(CC(=O)O)CCCCC1 [Gabapentin] shows Papp at 2 h, 50 µM equal to 0.02

---

Assay: Parallel artificial membrane permeability assay (PAMPA)
Format: in vitro ADME
Conditions: PAMPA; donor chamber pH 7.4; 50 μM; two hours at room temperature; acceptor pH 7.4; read-out: Permeability coefficient (Pam) pH 7.4
Readout Label: Papp at 2 h, 50 µM (×10⁻⁶ cm/s)
Give a bare numeral; the unit ×10⁻⁶ cm/s is implied.

The molecule listed as NCC1(CC(=O)O)CCCCC1 [Gabapentin] shows Papp at 2 h, 50 µM equal to 0.026
